Each recorded value in this set is attributed to paper PMC6803667.

# Test System: T1, third WW domain of human NEDD4 (hNEDD4-WW3), unlabelled (human, UniProt P46934 834-878)
# T1 construct: not shown: GST, N-terminal, cleaved; His tag, N-terminal, cleaved
# T1 sequence (P46934 834-878): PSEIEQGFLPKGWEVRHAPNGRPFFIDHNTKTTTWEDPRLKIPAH
# Method Summary: ITC
# Conditions Used: both partners purified
Please go through the items and note down their dH.
Numbers only, in kcal/mol.

Worked cases, answers included:
Binder	Observable	Reported
ILPTAPPEYMEA [Ebola Late domain peptide]	dH	-12.1
MQYLNPPPYADH [Marburg Late domain peptide]	dH	-17.5
DLWLPPPEYVPL [Rabies Late domain peptide]	dH	-15.7

Record dH per entry; entries follow.
1. SDPQIPPPYVEP [HTLV1 Late domain peptide]
2. Ac-PPPYVEPTAP-NH2 (source: synthetic peptide, bought: SynBioSci Corporation) [HTLV1ter Late domain peptide]

1. -16.3
2. -17.7
